# experimental-system: T1, Human ACVR2A (human, UniProt P27037 20-135, limits assumed); note: test concentration or dose not given here
# T1 construct: also called activin receptor, type II A
# T1 sequence (P27037 20-135 limits assumed): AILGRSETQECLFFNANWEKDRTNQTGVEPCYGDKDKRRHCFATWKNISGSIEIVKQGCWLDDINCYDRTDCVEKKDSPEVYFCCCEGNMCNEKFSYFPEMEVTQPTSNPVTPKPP
# test-protocol: ELISA
value-kind: optical density (OD)
Output spec: scalar in OD, unitless text.

367_B07 (antibody, V domains shown, VH/VL only) VH: EVQLLESGGGLVQPGGSLRLSCAASGFTFSDYSMNWVRQAPGKGLEWVAGINYNSGYTGYADSVKGRFTISRDNSKNTLYLQMNSLRAEDTAVYYCARSANWHDTHLDYWGQGTLVTVSS VL: DIQMTQSPSSLSASVGDRVTITCRASQSIISYVNWYQQKPGKAPKLLIYAATSLASGVPSRFSGSGSGTDFTLTISSLQPEDFATYYCQQSYNLPLTFGGGTKVEIK    1.42

Query: Can you share its optical density? I mean this binder: 366_B12 (antibody, V domains shown, VH/VL only) VH: EVQLLESGGGLVQPGGSLRLSCAASGFTFSSYSMNWVRQAPGKGLEWVAGINYNSGYKGYADSVKGRFTISRDNSKNTLYLQMNSLRAEDTAVYYCARSANWHDTALDYWGQGTLVTVSS VL: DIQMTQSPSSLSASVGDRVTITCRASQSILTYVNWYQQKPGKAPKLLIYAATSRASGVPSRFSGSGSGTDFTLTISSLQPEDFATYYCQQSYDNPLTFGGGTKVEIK
Response: 3.24
